The origin of these recorded values is patent US4824837A.

For each entry below, report its T1/2 (the time to reach 50% of the resistance drop) value.
Tested on: vascular resistance of the vertebral artery
PROTOCOL_SUMMARY: vascular resistance of the vertebral artery in anesthetized dogs
Assay type: in vivo
EXPERIMENTAL_CONTEXT: intravenous injection
Numbers only, in min.

Previously resolved entries follow.
[[record]]
compound = "COC(=O)C1=C(Cl)NC(C)=C(C(=O)OCCN(C)Cc2ccccc2)C1c1cccc([N+](=O)[O-])c1 (stereo not drawn)"
target_under_test = "vascular resistance of the vertebral artery"
measured_result = 17.0

[[record]]
compound = "COCCOC(=O)C1=C(C)NC(Cl)=C(C(=O)OC)C1c1cccc([N+](=O)[O-])c1 (stereo not drawn)"
target_under_test = "vascular resistance of the vertebral artery"
measured_result = 13.5

[[record]]
compound = "COC(=O)C1=C(Cl)NC(C)=C(C(=O)OCCCCCc2ccccc2)C1c1cccc([N+](=O)[O-])c1 (stereo not drawn)"
target_under_test = "vascular resistance of the vertebral artery"
measured_result = 17.0


# context switch: different compound, same T1/2 (the time to reach 50% of the resistance drop)
Query COC(=O)C1=C(Cl)NC(C)=C(C(=O)OCCOc2ccccc2)C1c1cccc([N+](=O)[O-])c1 (stereo not drawn) yields T1/2 (the time to reach 50% of the resistance drop) of 10.5

* * *

Give LD50 for every item shown.
PROTOCOL_SUMMARY: acute toxicity (LD50) in male mice
EXPERIMENTAL_CONTEXT: mouse, in vivo, iv, male mice; read-out: LD50 i.v.
Give bare numbers, in mg/kg.

[[record]]
compound = "COC(=O)C1=C(C)NC(C)=C(C(=O)OCCN(C)Cc2ccccc2)C1c1cccc([N+](=O)[O-])c1 (stereo not drawn) [Nicardipine, reference compound]"
test_readout = "LD50"
measured_result = 12.2


Kindly consider the entry below.
# LD50 of COC(=O)C1=C(Cl)NC(C)=C(C(=O)OC(C)C)C1c1cccc([N+](=O)[O-])c1 (stereo not drawn) [SUN 5141] = 80

* * *

System: vascular resistance of the vertebral artery
PROTOCOL_SUMMARY: vascular resistance of the vertebral artery in anesthetized dogs
Format: in vivo
EXPERIMENTAL_CONTEXT: intravenous injection
Give T1/2 (the time to reach 50% of the resistance drop) for every item shown.

Observe how each entry below is paired with its result.
[[record]]
compound = "CCCCCCCOC(=O)C1=C(C)NC(Cl)=C(C(=O)OC)C1c1cccc([N+](=O)[O-])c1 (stereo not shown)"
measured_result = "20.5 min"

[[record]]
compound = "COC(=O)C1=C(Cl)NC(C)=C(C(=O)OCCc2cccs2)C1c1cccc([N+](=O)[O-])c1 (stereo not shown)"
measured_result = "14.0 min"

[[record]]
compound = "COC(=O)C1=C(Cl)NC(C)=C(C(=O)OCCN2CCN(C3c4ccccc4-c4ccccc43)CC2)C1c1cccc([N+](=O)[O-])c1 (stereo not shown)"
measured_result = "15.5 min"


Let us examine a further case.
Measured T1/2 (the time to reach 50% of the resistance drop), COC(=O)C1=C(Cl)NC(C)=C(C(=O)OC(C)C)C1c1cccc([N+](=O)[O-])c1 (stereo not shown) : 10.6 min
